- Test system: P. aeruginosa ATCC10145
- ASSAY METHOD TEXT: Well diffusion inhibition zone, P. aeruginosa
- ASSAY CONDITIONS: Pseudomonas aeruginosa, ATCC10145, read-out: Inhibition zone P. aeruginosa ATCC10145
READOUT TYPE: zone of inhibition at 100 µg/mL (mm)

INSERT INTO results (compound, readout_type, assay_value) VALUES
  ('Cn1c(=O)c2c(-c3ccc(Cl)cc3)c(-c3nnc4sc(S)nn34)c(N)nc2n(C)c1=O', 'zone of inhibition at 100 µg/mL', 10.3),
  ('Cn1c(=O)c2c(-c3ccc(Cl)cc3)c(C3=NN=C4N=CN=C(N)C43)c(N)nc2n(C)c1=O (stereo not drawn)', 'zone of inhibition at 100 µg/mL', 10.5),
  ('Cc1cc(C)n(-c2c[nH]nc2NC(=O)c2c(N)nc3c(c2-c2ccc(Cl)cc2)c(=O)n(C)c(=O)n3C)n1', 'zone of inhibition at 100 µg/mL', 16.8);
